Source listed as patent US6355799B1.

- Tested on: johnsongrass (Sorghum halepense, SORHA)
- testName: Pre-emerge test, greenhouse herbicide activity screening
- Assay type: in vivo
- particulars: pre-emerge, rate 250 g ai/ha, phytotoxicity rating 0-100 at 14 days after application
Reported Pre-emerge Herbicidal Activity SORHA values follow for various compounds
Lab note: record just the number, no unit beside it.

For orientation, consider the following solved cases.
| compound | tgt | Pre-emerge Herbicidal Activity SORHA |
| --- | --- | --- |
| C=Cc1ccc(C(=O)Nc2c(OC)c(Cl)cc(F)c2N2C(=O)C3=C(CCCC3)C2=O)cc1 [8-30] | johnsongrass (Sorghum halepense, SORHA) | 30 |
| COc1c(Cl)cc(F)c(N2C(=O)C3=C(CCCC3)C2=O)c1NC(=O)C=Cc1ccccc1 [8-31] | johnsongrass (Sorghum halepense, SORHA) | 10 |
| C#CCOc1c(Cl)cc(Cl)c(-n2nnn(CCCF)c2=O)c1N [Compound 5-15] | johnsongrass (Sorghum halepense, SORHA) | 0 |

Q: Hello, please tell me recorded Pre-emerge Herbicidal Activity SORHA for this one: CCC(=O)Nc1c(Cl)cc(Cl)c(-n2nc(C)n(C(F)F)c2=O)c1N [Compound 6-19]
Ans: 0

Q: For the compound O=C(Nc1cc(Cl)ccc1N1C(=O)C2=C(CCCC2)C1=O)c1ccc2ccccc2c1 [8-36] , report Pre-emerge Herbicidal Activity SORHA.
Ans: 0

Q: Please report Pre-emerge Herbicidal Activity SORHA for the following compound: Cc1ccccc1COC(=O)Nc1c(C)c(Cl)cc(F)c1-n1c(=O)cc(C(F)(F)F)n(C)c1=O [4-56]
Ans: 90

Q: Give the reported value of Pre-emerge Herbicidal Activity SORHA for this record: C#CCOc1c(Cl)cc(F)c(N2C(=O)C3=C(CCCC3)C2=O)c1N [Compound 8-3]
Ans: 30

###

- Tested on: upland rice (Oryza sp., var. Tebonnet, RICE)
- testName: Pre-emerge test, crop safety
- Type: in vivo
- particulars: 63 g ai/ha; crop damage rating 0-100, 14 days after application
testReadout: Pre-emerge Herbicidal Activity RICE

| compound | Pre-emerge Herbicidal Activity RICE |
| --- | --- |
| COc1c(Cl)cc(F)c(-n2c(=O)cc(C(F)(F)F)n(C)c2=O)c1NC(=O)OCc1c(F)cccc1F | 50 |

Q: Item COc1c(Cl)cc(F)c(-n2c(=O)cc(C(F)(F)F)n(C)c2=O)c1NC(=O)N(Cc1ccccc1)c1ccccc1 : provide Pre-emerge Herbicidal Activity RICE
Ans: 0

Q: Identify measured Pre-emerge Herbicidal Activity RICE corresponding to COc1c(Cl)cc(F)c(-n2c(=O)cc(C(F)(F)F)n(C)c2=O)c1NC(=O)C1CC1
Ans: 60

Q: Entry COc1c(Cl)cc(F)c(-n2c(=O)cc(C(F)(F)F)n(C)c2=O)c1NC(=O)OCc1ccccn1 needs its Pre-emerge Herbicidal Activity RICE filled in; supply it.
Ans: 60

###

- System: lambsquarters (Chenopodium album, CHEAL)
- testName: Pre-emerge test, greenhouse herbicide activity screening
- Type: in vivo
- particulars: pre-emerge, rate 250 g ai/ha, phytotoxicity rating 0-100 at 14 days after application
testReadout: Pre-emerge Herbicidal Activity CHEAL
Respond with the number and no other words.

| molecule | Pre-emerge Herbicidal Activity CHEAL |
| --- | --- |
| CC(C)Oc1c(Cl)cc(Cl)c(-n2nnn(CCCF)c2=O)c1N [Compound 5-16] | 20 |
| C=Cc1ccc(C(=O)Nc2c(OC)c(Cl)cc(F)c2N2C(=O)C3=C(CCCC3)C2=O)cc1 [8-30] | 100 |
| COc1cccc(OC)c1OC(=O)Nc1c(C)c(Cl)cc(F)c1-n1c(=O)cc(C(F)(F)F)n(C)c1=O [4-59] | 100 |

# context switch: different molecule, same Pre-emerge Herbicidal Activity CHEAL
Q: Answer with reported Pre-emerge Herbicidal Activity CHEAL of COc1c(Cl)cc(F)c(-n2nnn(CCCF)c2=O)c1NC(=O)c1ccc2ccccc2c1 [Compound 5-26]
Ans: 100
